- study_system: flk-1/EpoR fusion (pmKE2) on CHO-Flk or Ba/F3-Flk cells (mouse; human, UniProt P35918 20-762; P19235 251-508, limits assumed)
- Sequence (P35918 other isoform, or with tags, fused parts or gaps limits assumed, form in doubt): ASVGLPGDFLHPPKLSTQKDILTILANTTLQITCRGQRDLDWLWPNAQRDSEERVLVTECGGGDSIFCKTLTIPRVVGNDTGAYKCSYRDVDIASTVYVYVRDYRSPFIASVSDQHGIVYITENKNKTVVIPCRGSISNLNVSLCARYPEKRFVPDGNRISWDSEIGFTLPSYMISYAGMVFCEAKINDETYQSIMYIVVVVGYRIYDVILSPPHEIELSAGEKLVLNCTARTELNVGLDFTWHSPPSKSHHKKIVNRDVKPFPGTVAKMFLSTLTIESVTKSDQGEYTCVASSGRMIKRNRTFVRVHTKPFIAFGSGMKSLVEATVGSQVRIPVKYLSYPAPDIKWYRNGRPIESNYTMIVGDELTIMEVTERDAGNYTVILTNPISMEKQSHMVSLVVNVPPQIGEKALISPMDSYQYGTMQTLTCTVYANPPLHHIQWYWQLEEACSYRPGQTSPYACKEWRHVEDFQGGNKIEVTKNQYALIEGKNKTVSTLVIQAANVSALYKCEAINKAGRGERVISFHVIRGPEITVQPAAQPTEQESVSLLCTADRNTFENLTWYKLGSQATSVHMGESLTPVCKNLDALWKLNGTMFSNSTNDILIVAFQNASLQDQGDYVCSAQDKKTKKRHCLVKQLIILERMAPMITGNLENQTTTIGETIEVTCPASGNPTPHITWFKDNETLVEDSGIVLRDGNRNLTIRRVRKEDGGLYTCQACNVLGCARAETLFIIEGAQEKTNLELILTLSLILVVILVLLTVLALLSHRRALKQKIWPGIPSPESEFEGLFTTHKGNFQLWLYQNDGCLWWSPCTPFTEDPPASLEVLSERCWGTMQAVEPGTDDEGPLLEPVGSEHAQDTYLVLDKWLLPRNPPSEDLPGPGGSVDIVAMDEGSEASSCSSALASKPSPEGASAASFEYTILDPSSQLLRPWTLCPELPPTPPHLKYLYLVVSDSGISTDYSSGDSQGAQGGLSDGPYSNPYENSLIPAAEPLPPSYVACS
- protocol_text: cell-based or functional assay
Collected Inhibition of VEGF-induced proliferation, Ba/F3-Flk (IC50, nM) values appear next to each entry.
Give your result in nM as a bare value.

INSERT INTO measurements (binder, val) VALUES
  ('M5FL, E. coli-expressed, His6 (designed binder, soluble E. coli form with Ser100) VSDVPRDLEVVAATPTSLLISWRHPHFPTRYYRITYGETGGNSPVQEFTVPLQPPLATISGLKPGVDYTITVYAVTKERNGRELFTPISINYRTEIDKPSQHHHHHH', 5.1),
  ('E18, E. coli-expressed, His6 (designed binder, soluble E. coli form; N-terminal residues added for expression not described) EVVAATPTSLLISWRHPHFPTRYYRITYGETGGNSPVQEFTVPLQPPTATISGLKPGVDYTITGYAVTVERNGRELNTPISINYRTEIDKPSQHHHHHH', 2.4),
  ('E29, E. coli-expressed, His6 (designed binder, soluble E. coli form; N-terminal residues added for expression not described) EVVAATPTSLLISWRHPHFPTRYYRITYGETGGNSPVQEFTVPLQPPTATISGLKPGVDYTITGYAVTVERNGRVLMTPISINYRTEIDKPSQHHHHHH', 4.7);

Shift focus to the following entry.
Challenge: Look up Inhibition of VEGF-induced proliferation, Ba/F3-Flk (IC50, nM) for this binder: E19, E. coli-expressed, His6 (designed binder, soluble E. coli form; N-terminal residues added for expression not described) EVVAATPTSLLISWRHPHFPTRYYRITYGETGGNSPVQEFTVPLQPPTATISGLKPGVDYTITGYAVTVERNGRHLMTPISINYRTEIDKPSQHHHHHH
Response given: 5.8
